test system: HER2; assay: HER2 degradation in BT-474 cells (Example 3, Western blot / in-cell imaging); assay type: cell-based, human; details: Homo sapiens; BT-474 cells; read-out: HER2 (IC50)
measured.attribute: IC50

compound	data.value
CC(C)c1cc(-c2nnc(O)n2-c2ccc3c(ccn3CCN(C)C(=O)NCC(=O)Nc3cccc4c3CN(C3CCC(=O)NC3=O)C4=O)c2)c(O)cc1O (stereo not drawn)	> 5 µM
CC(C)c1cc(-c2nnc(O)n2-c2ccc3c(ccn3CCOCCN(C)C(=O)CCC(=O)Nc3cccc4c3CN(C3CCC(=O)NC3=O)C4=O)c2)c(O)cc1O (stereo not drawn)	> 5 µM
CC(C)c1cc(-c2nnc(O)n2-c2ccc3c(ccn3CCOCCNC(=O)c3ccc(CCc4c[nH]c5nc(N)[nH]c(=O)c45)cc3)c2)c(O)cc1O	> 5 µM

====

assay: in vivo; settings: mouse, Plasma Conc.
# concentration at 6 h annotations
measured.attribute: concentration at 6 h (nM)

compound	data.value
CC(C)c1cc(-c2nnc(O)n2-c2ccc(CC3CCN(CC(=O)Nc4cccc5c4CN(C4CCC(=O)NC4=O)C5=O)CC3)cc2)c(O)cc1O (centres unmarked)	595
CCc1c2c(nc3ccc(OC(=O)N4CCC(CCn5ccc6cc(-n7c(O)nnc7-c7cc(C(C)C)c(O)cc7O)ccc65)CC4)cc13)-c1cc3c(c(=O)n1C2)COC(=O)[C@]3(O)CC	1690

====

# pIC50 annotations
tested on: HER2; experiment: HER2 degradation assay with BT-474 cell line (Example 12, FACS); type: cell-based; conditions: Homo sapiens, BT-474; SDC-TRAPs of the 41st table
pIC50: −log10 of the molar value.

smiles.record	comparison.symbol	pIC50
CC(C)c1cc(-c2nnc(O)n2-c2ccc(N3CCN(C(=O)c4ccc(CCc5c[nH]c6nc(N)[nH]c(=O)c56)cc4)CC3)cc2)c(O)cc1O	=	5.98
CC(C)c1cc(-c2nnc(O)n2-c2ccc3c(ccn3CCN(C)C(=O)c3ccc(CCc4c[nH]c5nc(N)[nH]c(=O)c45)cc3)c2)c(O)cc1O	=	5.35
CC(C)c1cc(-c2nnc(O)n2-c2ccc3c(c2)nc(C2CCN(C(=O)c4ccc(CCc5c[nH]c6nc(N)[nH]c(=O)c56)cc4)CC2)n3C)c(O)cc1O	<	5.30
CC(C)c1cc(-c2nnc(O)n2-c2ccc(CN3CCN(C(=O)c4ccc(CCc5c[nH]c6nc(N)[nH]c(=O)c56)cc4)CC3)c(F)c2)c(O)cc1O	=	6.00
CC(C)c1cc(-c2nnc(O)n2-c2ccc3c(ccn3CCOCCNC(=O)c3ccc(CCc4c[nH]c5nc(N)[nH]c(=O)c45)cc3)c2)c(O)cc1O	<	5.30
CC(C)c1cc(-c2nnc(O)n2-c2ccc(CC3CCN(CC4CCN(C(=O)c5ccc(CCc6c[nH]c7nc(N)[nH]c(=O)c67)cc5)CC4)CC3)cc2)c(O)cc1O	=	6.61
CC(C)c1cc(-c2nnc(O)n2-c2ccc(CN3CCN(C(=O)c4ccc(CCc5c[nH]c6nc(N)[nH]c(=O)c56)cc4)CC3)cc2)c(O)cc1O	=	6.58
CC(C)c1cc(-c2nnc(O)n2-c2ccc3c(ccn3CCC3CCN(C(=O)c4ccc(CCc5c[nH]c6nc(N)[nH]c(=O)c56)cc4)CC3)c2)c(O)cc1O	=	5.74
CC(C)c1cc(-c2nnc(O)n2-c2ccc3c(c2)CN(C(=O)c2ccc(CCc4c[nH]c5nc(N)[nH]c(=O)c45)cc2)C3)c(O)cc1O	<	5.30

====

test: Tissue distribution of SDC-TRAPs in tumor-bearing mice: plasma, tumor, heart (Examples 14-15); conditions: mouse, in vivo
# concentration at 24 h annotations
measured.attribute: concentration at 24 h (nM)

molecule	measured.attribute	data.value
CCNC(=O)c1nnc(-c2cc(C(C)C)c(O)cc2O)n1-c1ccc(CN2CCC(C(=O)N3CCN(c4cc(C)c(OC(=O)Nc5cccc6c5CN(C5CCC(=O)NC5=O)C6=O)c(C)c4)CC3)CC2)cc1 (stereo not shown)	concentration at 24 h	2030
CC(C)c1cc(-c2nnc(O)n2-c2ccc(CN3CCN(C(=O)Oc4ccc(COC(=O)Nc5cccc6c5CN(C5CCC(=O)NC5=O)C6=O)cc4)CC3)c(F)c2)c(O)cc1O (stereo not shown)	concentration at 24 h	1.62
CCc1c2c(nc3ccc(OC(=O)N4CCN(c5ccc(-n6c(O)nnc6-c6cc(C(C)C)c(O)cc6O)cc5)CC4)cc13)-c1cc3c(c(=O)n1C2)COC(=O)C3(O)CC (stereo not shown)	concentration at 24 h	11.3
CCc1c2c(nc3ccc(OC(=O)N4CCN(Cc5ccc(-n6c(O)nnc6-c6cc(C(C)C)c(O)cc6O)cc5)CC4)cc13)-c1cc3c(c(=O)n1C2)COC(=O)C3(O)CC (stereo not shown)	concentration at 24 h	54.2

====

experiment: Tissue distribution of SDC-TRAPs in tumor-bearing mice: plasma, tumor, heart (Examples 14-15); conditions: mouse, in vivo

compound	Kp at 6 h
CCc1c2c(nc3ccc(OC(=O)N4CCN(c5ccc(-n6c(O)nnc6-c6cc(C(C)C)c(O)cc6O)cc5)CC4)cc13)-c1cc3c(c(=O)n1C2)COC(=O)C3(O)CC (centres unmarked) [SDC-TRAP-0045]	1.35
CCc1c2c(nc3ccc(OC(=O)N4CCN(Cc5ccc(-n6c(O)nnc6-c6cc(C(C)C)c(O)cc6O)cc5)CC4)cc13)-c1cc3c(c(=O)n1C2)COC(=O)C3(O)CC (centres unmarked) [SDC-TRAP-0046]	0.844
COc1ccc(-c2cnoc2-c2cc(OC)c(OC)c(OC)c2)cc1OC(=O)N1CCN(Cc2ccc(-n3c(O)nnc3-c3cc(C(C)C)c(O)cc3O)cc2)CC1 [SDC-TRAP-0098]	8.22
CCNC(=O)c1nnc(-c2cc(C(C)C)c(O)cc2O)n1-c1ccc(CN2CCC(C(=O)N3CCN(c4cc(C)c(OC(=O)Nc5cccc6c5CN(C5CCC(=O)NC5=O)C6=O)c(C)c4)CC3)CC2)cc1 (centres unmarked) [SDC-TRAP-0195]	2.36
CC(C)c1cc(-c2nnc(O)n2-c2ccc(CN3CCN(C(=O)Oc4ccc(COC(=O)Nc5cccc6c5CN(C5CCC(=O)NC5=O)C6=O)cc4)CC3)c(F)c2)c(O)cc1O (centres unmarked) [SDC-TRAP-0171]	3.1

====

# Kp at 1 h annotations
experiment: Tissue distribution of SDC-TRAPs in tumor-bearing mice: plasma, tumor, heart (Examples 14-15); conditions: mouse, in vivo
measured.attribute: Kp at 1 h

molecule	data.value
CCNC(=O)c1nnc(-c2cc(C(C)C)c(O)cc2O)n1-c1ccc(CN2CCC(C(=O)N3CCN(c4cc(C)c(OC(=O)Nc5cccc6c5CN(C5CCC(=O)NC5=O)C6=O)c(C)c4)CC3)CC2)cc1 (stereo not drawn) [SDC-TRAP-0195]	0.109
COc1ccc(-c2cnoc2-c2cc(OC)c(OC)c(OC)c2)cc1OC(=O)N1CCN(Cc2ccc(-n3c(O)nnc3-c3cc(C(C)C)c(O)cc3O)cc2)CC1 [SDC-TRAP-0098]	0.62
CC(C)c1cc(-c2nnc(O)n2-c2ccc(CN3CCN(C(=O)Oc4ccc(COC(=O)Nc5cccc6c5CN(C5CCC(=O)NC5=O)C6=O)cc4)CC3)c(F)c2)c(O)cc1O (stereo not drawn) [SDC-TRAP-0171]	0.249

====

# Kp at […] annotations
assay: Tissue distribution of SDC-TRAPs in tumor-bearing mice: plasma, tumor, heart (Examples 14-15); settings: mouse, in vivo

compound	Kp at […]
CC(C)c1cc(-c2nnc(O)n2-c2ccc(CN3CCN(C(=O)Oc4ccc(COC(=O)Nc5cccc6c5CN(C5CCC(=O)NC5=O)C6=O)cc4)CC3)c(F)c2)c(O)cc1O (centres unmarked) [SDC-TRAP-0171]	0.0164
CCc1c2c(nc3ccc(OC(=O)N4CCN(c5ccc(-n6c(O)nnc6-c6cc(C(C)C)c(O)cc6O)cc5)CC4)cc13)-c1cc3c(c(=O)n1C2)COC(=O)C3(O)CC (centres unmarked) [SDC-TRAP-0045]	0.00624
CCNC(=O)c1nnc(-c2cc(C(C)C)c(O)cc2O)n1-c1ccc(CN2CCC(C(=O)N3CCN(c4cc(C)c(OC(=O)Nc5cccc6c5CN(C5CCC(=O)NC5=O)C6=O)c(C)c4)CC3)CC2)cc1 (centres unmarked) [SDC-TRAP-0195]	0.014
COc1ccc(-c2cnoc2-c2cc(OC)c(OC)c(OC)c2)cc1OC(=O)N1CCN(Cc2ccc(-n3c(O)nnc3-c3cc(C(C)C)c(O)cc3O)cc2)CC1 [SDC-TRAP-0098]	0.01
CCc1c2c(nc3ccc(OC(=O)N4CCN(Cc5ccc(-n6c(O)nnc6-c6cc(C(C)C)c(O)cc6O)cc5)CC4)cc13)-c1cc3c(c(=O)n1C2)COC(=O)C3(O)CC (centres unmarked) [SDC-TRAP-0046]	0.0193
